# subject.of.test: PSMA (Homo sapiens, UniProt Q04609)
# Construct: host or cells: LNCaP cells
# Sequence (Q04609 whole entry): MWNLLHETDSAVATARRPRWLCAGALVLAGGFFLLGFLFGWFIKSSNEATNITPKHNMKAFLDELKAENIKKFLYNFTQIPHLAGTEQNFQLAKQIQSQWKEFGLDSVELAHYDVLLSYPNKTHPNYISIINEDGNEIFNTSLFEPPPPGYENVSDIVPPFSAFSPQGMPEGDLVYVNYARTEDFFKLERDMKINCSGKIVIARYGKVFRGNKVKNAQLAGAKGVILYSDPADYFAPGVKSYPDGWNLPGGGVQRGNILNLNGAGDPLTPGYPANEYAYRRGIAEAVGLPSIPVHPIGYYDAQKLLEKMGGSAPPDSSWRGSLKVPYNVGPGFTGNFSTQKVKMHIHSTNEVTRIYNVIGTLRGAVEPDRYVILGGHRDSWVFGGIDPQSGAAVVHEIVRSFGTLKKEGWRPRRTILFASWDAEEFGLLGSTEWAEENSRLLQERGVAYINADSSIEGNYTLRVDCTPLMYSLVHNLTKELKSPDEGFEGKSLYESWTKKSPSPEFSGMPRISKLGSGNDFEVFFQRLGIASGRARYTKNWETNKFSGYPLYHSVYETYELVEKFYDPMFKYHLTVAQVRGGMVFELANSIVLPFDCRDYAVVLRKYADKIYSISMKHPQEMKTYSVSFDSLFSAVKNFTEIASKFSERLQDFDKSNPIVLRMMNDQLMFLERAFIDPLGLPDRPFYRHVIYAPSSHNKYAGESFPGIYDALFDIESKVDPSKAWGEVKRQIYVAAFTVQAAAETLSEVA
# procedure.summary: In vitro competition binding assay ([^18F]DCFPyL displacement on LNCaP cells)
# test.conditions: inhibition of [^18F]DCFPyL binding to PSMA-expressing LNCaP cells, n = 3
pKi: −log10 of the molar value.

compound	subject.of.test	pKi
NNc1ccc(C(=O)NC[C@H]2CC[C@H](C(=O)N[C@@H](Cc3c4ccccc4cc4ccccc34)C(=O)NCCCC[C@H](NC(=O)N[C@@H](CCCC(=O)O)C(=O)O)C(=O)O)CC2)cn1	PSMA (Homo sapiens, UniProt Q04609)	7.94
NNc1ccc(C(=O)N[C@@H](Cc2ccc3ccccc3c2)C(=O)NCCCC[C@H](NC(=O)N[C@@H](CCCC(=O)O)C(=O)O)C(=O)O)cn1	PSMA (Homo sapiens, UniProt Q04609)	8.05
NNc1ccc(C(=O)NC[C@H]2CC[C@H](C(=O)N[C@@H](Cc3c4ccccc4cc4ccccc34)C(=O)NCCCC[C@H](NC(=O)N[C@@H](CCC(=O)O)C(=O)O)C(=O)O)CC2)cn1	PSMA (Homo sapiens, UniProt Q04609)	7.97
NNc1ccc(C(=O)N[C@@H](Cc2ccc3ccccc3c2)C(=O)NCCCC[C@H](NC(=O)N[C@@H](CCC(=O)O)C(=O)O)C(=O)O)cn1 [HYNIC-iPSMA, reference compound]	PSMA (Homo sapiens, UniProt Q04609)	8.51
